# system under test: Δ^5 -lipoxygenase from rat basophilic leukemia (RBL-1) cells (Rattus norvegicus)
# Construct: endogenous in cells; 113,000×g supernatant (cytosolic fraction)
# assay summary: In vitro test for Δ^5 -lipoxygenase inhibitors (5-LO), RBL-1 cell enzyme, 5-HETE radioimmunoassay
# applied conditions: RBL-1 5-LO; 10 min preincubation; 8.25 μM arachidonic acid, 10 min at 37° C.; 5-HETE formation; read-out: 5-LO IC-50
pIC50: −log10 of the molar value.
recorded endpoint: pIC50

Example entries and their recorded answers appear below.
Cc1c(C)c2c(c(C)c1O)CCC(C)(C#Cc1cccc(C(F)(F)F)c1)O2 (racemic); 6.72
Cc1c(C)c2c(c(C)c1O)CCC(C)(C#Cc1cccc3ccccc13)O2 (racemic); 6.30
Cc1c(C)c2c(c(C)c1O)CCC(C)(C#Cc1ccccn1)O2 (racemic); 7.80
Cc1c(C)c2c(c(C)c1O)CCC(C)(C#Cc1cccnc1)O2 (racemic); 7.40
Cc1c(C)c2c(c(C)c1O)CCC(C)(CCc1ccccn1)O2 (racemic); 7.22

A = Cc1c(C)c2c(c(C)c1O)CCC(C)(CCc1cccs1)O2 (racemic)
B = Cc1c(C)c2c(c(C)c1O)CCC(C)(C#Cc1ccccc1N)O2 (racemic)
C = COC(=O)c1cc(C#CC2(C)CCc3c(C)c(O)c(C)c(C)c3O2)ccc1O (racemic)
Please rank these compounds by pIC50 in descending order. Give me the labels in the order the question wants.
B, A, C

---

# system under test: Δ^5 -lipoxygenase from rat basophilic leukemia (RBL-1) cells (Rattus norvegicus, UniProt P12527)
# Construct: endogenous in cells; 113,000×g supernatant (cytosolic fraction)
# Sequence (P12527 whole entry, stated change not applied): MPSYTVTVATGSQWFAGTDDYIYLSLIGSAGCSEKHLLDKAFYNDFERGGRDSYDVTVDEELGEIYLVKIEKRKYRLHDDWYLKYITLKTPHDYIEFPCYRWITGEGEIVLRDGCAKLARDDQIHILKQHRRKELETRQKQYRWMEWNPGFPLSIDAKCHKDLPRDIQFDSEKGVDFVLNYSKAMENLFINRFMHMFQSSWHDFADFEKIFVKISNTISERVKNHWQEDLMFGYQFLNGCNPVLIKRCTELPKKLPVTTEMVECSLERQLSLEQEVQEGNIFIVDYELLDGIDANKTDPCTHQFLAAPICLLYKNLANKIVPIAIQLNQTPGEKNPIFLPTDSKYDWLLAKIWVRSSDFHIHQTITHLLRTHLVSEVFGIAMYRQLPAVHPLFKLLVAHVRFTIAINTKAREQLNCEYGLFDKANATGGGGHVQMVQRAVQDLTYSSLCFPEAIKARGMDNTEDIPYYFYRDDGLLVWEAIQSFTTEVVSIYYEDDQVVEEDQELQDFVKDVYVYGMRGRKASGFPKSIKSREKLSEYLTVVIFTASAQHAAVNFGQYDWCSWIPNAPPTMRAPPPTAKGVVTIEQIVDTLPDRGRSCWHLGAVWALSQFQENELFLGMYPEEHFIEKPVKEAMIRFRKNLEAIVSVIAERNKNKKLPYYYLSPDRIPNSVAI
# assay summary: In vitro test for Δ^5 -lipoxygenase inhibitors (5-LO), RBL-1 cell enzyme, 5-HETE radioimmunoassay
# applied conditions: RBL-1 5-LO; 10 min preincubation; 8.25 μM arachidonic acid, 10 min at 37° C.; 5-HETE formation; read-out: 5-LO IC-50
Where a name gives a salt, the structure may show the parent alone.
recorded endpoint: IC50 (nM)

COc1cc(CN)cc(CCC2(C)CCc3c(C)c(O)c(C)c(C)c3O2)c1O (racemic) [Example 68, hydrochloride]; 70

a = CC(=O)Oc1cc(CCC2(C)CCc3c(C)c(O)c(C)c(C)c3O2)ccc1O (racemic)
b = Cc1c(C)c2c(c(C)c1O)CCC(C)(c1cc3ccccc3o1)O2 (racemic)
c = Cc1c(C)c2c(c(C)c1O)CCC(C)(C#Cc1ccc(-c3cccnc3)cc1)O2 (racemic)
Please rank these molecules by IC50 in descending order. Give me the labels in the order the question wants.
c, a, b

---

# system under test: Δ^5 -lipoxygenase from rat basophilic leukemia (RBL-1) cells (Rattus norvegicus, UniProt P12527)
# Construct: endogenous in cells; 113,000×g supernatant (cytosolic fraction)
# assay summary: In vitro test for Δ^5 -lipoxygenase inhibitors (5-LO), RBL-1 cell enzyme, 5-HETE radioimmunoassay
# applied conditions: RBL-1 5-LO; 10 min preincubation; 8.25 μM arachidonic acid, 10 min at 37° C.; 5-HETE formation; read-out: 5-LO IC-50
recorded endpoint: IC50 (nM)

Cc1c(C)c2c(c(C)c1O)CCC(C)(CCc1cccnc1)O2 (racemic) [Example 59]; 30
Cc1c(C)c2c(c(C)c1O)CCC(C)(C#Cc1ccc3c(c1)N(C)C(=O)CO3)O2 (stereo not shown) [Example 48]; 32
Cc1c(C)c2c(c(C)c1O)CCC(C)(C#Cc1ccc(OCc3ccccc3)c(O)c1)O2 (racemic) [Example 43]; 24
CCCc1c(O)c(C(C)=O)cc2cc(C3(C)CCc4c(C)c(O)c(C)c(C)c4O3)oc12 (racemic) [Example 53]; 17

A = COc1cc(CO)cc(C#CC2(C)CCc3c(C)c(O)c(C)c(C)c3O2)c1O (racemic) [Example 29]
B = Cc1c(C)c2c(c(C)c1O)CCC(C)(C#Cc1csc3ccccc13)O2 (racemic) [Example 16]
Among A and B , whose measured IC50 is the smaller figure? The response must carry the label of the picked entry.
B
(B: 1.6 nM, A: 130 nM)

Where do these numbers come from? They come from patent US5015661A.
